Origin of values: the supplement of paper PMC10724198

# maps each entry to its protein stability index
Test system: Saccharomyces cerevisiae
protocolDetails: protein stability index of tFT-peptide fusion (C-terminal peptide) (PSI (0-1 scale)); higher = more stable (slower turnover)
measurementContext: genetic background: wild type; temperature: 30 C
Form field (numeric): enter value without unit.

Use these answered entries as a reference point.
1) VLGGVWAWWVGF :: 0.663
2) CVYGWVGRGWGA :: 0.707
3) VLSGFICTILIP :: 0.596
4) VVACCVVFWVLP :: 0.437
5) ILEGGGVLAWFG :: 0.725

Record `HRCVQFMNWVAF` / Saccharomyces cerevisiae, protein stability index recorded as 0.735

Record `ALSPAFSPLFLP` / Saccharomyces cerevisiae, protein stability index recorded as 0.668

Record `AEFSGVVIGRWW` / Saccharomyces cerevisiae, protein stability index recorded as 0.718

Record `VSARWSTSLCLS` / Saccharomyces cerevisiae, protein stability index recorded as 0.533

---

Test system: Saccharomyces cerevisiae
protocolDetails: protein stability index of tFT-peptide fusion (C-terminal peptide) (PSI (0-1 scale)); higher = more stable (slower turnover)
measurementContext: genetic background: wild type; temperature: 30 C
Parameter threshold = 0.7. Response is Met when protein stability index meets or exceeds it, else Not met.

Answered examples (2):
1) VKRPGVGRSSTA :: Met
2) SASWARRSLPIW :: Met

Prompt line: Item `IRKNWQRIGETA` with protein stability index of 0.7 or above?
Response line: Not met

Prompt line: Item `PYTHFFSPPFWP` with protein stability index of 0.7 or above?
Response line: Met

---

Tested on: Saccharomyces cerevisiae
protocolDetails: protein stability index of tFT-peptide fusion (C-terminal peptide) (PSI (0-1 scale)); higher = more stable (slower turnover)
measurementContext: genetic background: das1 deletion; temperature: 37 C
Parameter threshold = 0.6. Response is satisfied when protein stability index meets or exceeds it, else not satisfied.

Answered examples (6):
1) VCSRWFFVFVVR :: not satisfied
2) LCLLFLSFFFVC :: not satisfied
3) RSGWWQWGRPGT :: satisfied
4) KWGRFQQVMVIN :: satisfied
5) RWALPALWAYAA :: satisfied
6) WFSMSRLWVFYS :: satisfied

Prompt line: Item `GGVWLSVVSWVG` with protein stability index of 0.6 or above?
Response line: not satisfied

Prompt line: Item `DYRCWCAILVSS` with protein stability index of 0.6 or above?
Response line: not satisfied

Prompt line: Item `WFLFVLCAWGFF` with protein stability index of 0.6 or above?
Response line: not satisfied

Prompt line: Item `GVCRFFCLVFCS` with protein stability index of 0.6 or above?
Response line: not satisfied

Prompt line: Item `IFHWLYLLIALI` with protein stability index of 0.6 or above?
Response line: not satisfied

Prompt line: Item `VCVFFRLCIVWY` with protein stability index of 0.6 or above?
Response line: not satisfied

Prompt line: Item `FFSPFFFFLFRL` with protein stability index of 0.6 or above?
Response line: not satisfied

Prompt line: Item `FPLGMFWVCFFV` with protein stability index of 0.6 or above?
Response line: not satisfied

Prompt line: Item `QNVKRIVRHMLT` with protein stability index of 0.6 or above?
Response line: satisfied

Prompt line: Item `CLCVLVSFFFGL` with protein stability index of 0.6 or above?
Response line: not satisfied

Prompt line: Item `VGSSSGRLLYLC` with protein stability index of 0.6 or above?
Response line: satisfied

Prompt line: Item `RYQDLSDWRRIS` with protein stability index of 0.6 or above?
Response line: satisfied

Prompt line: Item `WQIGIYILQGLA` with protein stability index of 0.6 or above?
Response line: not satisfied

Prompt line: Item `FVMTYCLMSVSK` with protein stability index of 0.6 or above?
Response line: not satisfied

Prompt line: Item `FSGFPLTLSPPL` with protein stability index of 0.6 or above?
Response line: satisfied

Prompt line: Item `VPTRRRGNRRPA` with protein stability index of 0.6 or above?
Response line: satisfied

Prompt line: Item `GGSWVRCLRTMG` with protein stability index of 0.6 or above?
Response line: satisfied

Prompt line: Item `WFSRCVSLGLCW` with protein stability index of 0.6 or above?
Response line: not satisfied

---

System: Saccharomyces cerevisiae
protocolDetails: protein stability index of tFT-peptide fusion (C-terminal peptide) (PSI (0-1 scale)); higher = more stable (slower turnover)
measurementContext: genetic background: cdc34-1; temperature: 37 C
Parameter threshold = 0.5. Response is Met when protein stability index meets or exceeds it, else Not met.

1. CMIACYALLRLL :: Not met
2. FCVLLFCAVSDL :: Not met
3. RVFVGLVDFLFW :: Not met

Prompt line: Item `VTVWVFVFLRGL` with protein stability index of 0.5 or above?
Response line: Not met

Prompt line: Item `PRLWLYCLIISL` with protein stability index of 0.5 or above?
Response line: Not met

Prompt line: Item `DYSVIPSLALLP` with protein stability index of 0.5 or above?
Response line: Met

---

Test system: Saccharomyces cerevisiae
protocolDetails: protein stability index of tFT-peptide fusion (C-terminal peptide) (PSI (0-1 scale)); higher = more stable (slower turnover)
measurementContext: genetic background: wild type; temperature: 30 C
Parameter threshold = 0.3. Response is T when protein stability index meets or exceeds it, else F.

1. LRFVCALGYCVW :: T

Prompt line: Item `GKKKREWKKNRI` with protein stability index of 0.3 or above?
Response line: F

Prompt line: Item `RWALPALWAYAA` with protein stability index of 0.3 or above?
Response line: F

Prompt line: Item `HGVRLHTVWVGG` with protein stability index of 0.3 or above?
Response line: T

Prompt line: Item `RFFVLSFFFLVS` with protein stability index of 0.3 or above?
Response line: F

Prompt line: Item `LCVVVICCLMAR` with protein stability index of 0.3 or above?
Response line: F

Prompt line: Item `FSVSYFRLVRLC` with protein stability index of 0.3 or above?
Response line: F

---

# maps each entry to its protein stability index
System: Saccharomyces cerevisiae
protocolDetails: protein stability index of tFT-peptide fusion (C-terminal peptide) (PSI (0-1 scale)); higher = more stable (slower turnover)
measurementContext: genetic background: wild type; temperature: 30 C
Form field (numeric): enter value without unit.

1. IFTSGSKSMKDL [ALG6 C-terminal 12 aa] :: 0.671
2. ELNEEKRRSALP [SAK1 C-terminal 12 aa] :: 0.686
3. AQNFILFHDYLH [YLR365W C-terminal 12 aa] :: 0.711

What the record says about VHAENTTLREIL [CDC50 C-terminal 12 aa] : protein stability index is 0.708

---

Test system: Saccharomyces cerevisiae
protocolDetails: protein stability index of tFT-peptide fusion (C-terminal peptide) (PSI (0-1 scale)); higher = more stable (slower turnover)
measurementContext: genetic background: wild type; temperature: 30 C
experimentalReadout: protein stability index
Form field (numeric): enter value without unit.

Use these answered entries as a reference point.
1) SSVVCGPGVLGV :: 0.729
2) VFRHIGVIYNNF :: 0.65
3) PGLGISHARCCF :: 0.695
4) PSHRPWPPTRPP :: 0.677
5) PPPVPPLPSPLP :: 0.649

Below: the item to evaluate.
Record `VRFARSGPAHVC` / Saccharomyces cerevisiae, protein stability index recorded as 0.661

---

# maps each entry to its protein stability index
Tested on: Saccharomyces cerevisiae
protocolDetails: protein stability index of tFT-peptide fusion (C-terminal peptide) (PSI (0-1 scale)); higher = more stable (slower turnover)
measurementContext: genetic background: das1 deletion; temperature: 30 C
Form field (numeric): enter value without unit.

Use these answered entries as a reference point.
1) RTNHIYNYENSD [DFG16 C-terminal 12 aa] :: 0.703
2) QGRQGFNGGSRW [YNL208W C-terminal 12 aa] :: 0.706

What the record says about QAQLTAATNAKQ [PDC5 C-terminal 12 aa] : protein stability index is 0.692

---

System: Saccharomyces cerevisiae
protocolDetails: protein stability index of tFT-peptide fusion (C-terminal peptide) (PSI (0-1 scale)); higher = more stable (slower turnover)
measurementContext: genetic background: das1 deletion; temperature: 30 C
experimentalReadout: protein stability index
Form field (numeric): enter value without unit.

Use these answered entries as a reference point.
1. VNHSFEFNDVLQ [IFH1 C-terminal 12 aa] :: 0.686
2. KGNLPGVKKGIW [MRP2 C-terminal 12 aa] :: 0.687
3. VDSEGQIRYAKE [YCR087C-A C-terminal 12 aa] :: 0.673

Record RTAAESIANDRK [FRD1 C-terminal 12 aa] / Saccharomyces cerevisiae, protein stability index recorded as 0.674

Record NYQKNEPVEFLE [MIN9 C-terminal 12 aa] / Saccharomyces cerevisiae, protein stability index recorded as 0.711

Record KDLFASIGKKKL [FYV8 C-terminal 12 aa] / Saccharomyces cerevisiae, protein stability index recorded as 0.714

Record YLRFKENPEEKW [AIM29 C-terminal 12 aa] / Saccharomyces cerevisiae, protein stability index recorded as 0.711

Record DATRREVMTERK [LSM2 C-terminal 12 aa] / Saccharomyces cerevisiae, protein stability index recorded as 0.672

Record EEPQLDLLDDVL [MTW1 C-terminal 12 aa] / Saccharomyces cerevisiae, protein stability index recorded as 0.706

Record GFASLIKDFKKK [NET1 C-terminal 12 aa] / Saccharomyces cerevisiae, protein stability index recorded as 0.672

Record EELFEEDSFYKY [NDT80 C-terminal 12 aa] / Saccharomyces cerevisiae, protein stability index recorded as 0.736

Record QSLPPTLKVNRL [RPL38 C-terminal 12 aa] / Saccharomyces cerevisiae, protein stability index recorded as 0.672
